Assay Remarks: Pseudomonas biofilm growth suppression – PAO1 strain, BacTiter-Glo luminescence, LB-PBS, primary screen (AID 1144)
Condition Notes: P. aeruginosa PAO1 biofilm, 12 h, higher = more signal

| Compound | z-score |
| --- | --- |
| CCCC=C(CCC)[C@@H](NC(=O)OCC(C)C)c1ccccc1 | 0.173 |
| COC(=O)[C@]1(CCC(=O)OC(C)(C)C)N=C(c2ccc(OCCCO)cc2)O[C@@H]1c1ccccc1 | 0.314 |
| COc1ccc(NN2C(C(O)c3ccc(N(C)C)cc3)C=CC3C(=O)N(C4CCCCC4)C(=O)C32)cc1 (stereo not drawn) | -0.805 |
| CCOC(=O)C[C@H]1[C@H](OC(=O)c2ccc(C(=O)c3ccccc3)cc2)[C@@H](NC(=O)c2ccccc2)c2cc(OCCCO)ccc2N1C(=O)c1ccccc1 | -0.948 |
| CC[C@@H]1C=C(C(=O)O)[C@H](c2ccc(C)cc2)N1S(=O)(=O)c1ccc(C)cc1 | -0.498 |
| O=C1C2C=CC(C(O)C=Cc3ccc([N+](=O)[O-])cc3)N(n3cnnc3)C2C(=O)N1Cc1ccccc1 (stereo not drawn) | -0.871 |
| C=CC[C@@]1(C(=O)N2CCCCC2)N=C(c2ccc(OCCCO)cc2)O[C@@H]1c1ccccc1N=[N+]=[N-] | -0.588 |
| COc1ccc([Si](C)(C)[C@@H]2[C@@H](CCO)O[C@]3(C(=O)N(Cc4cccc(N5CCOC5=O)c4)c4ccccc43)[C@H]2C)cc1 | -0.631 |

----------
Assay System: Dihydroorotate dehydrogenase (quinone), mitochondrial (Plasmodium falciparum (isolate 3D7))
Assay Remarks: inhibition of P. falciparum DHODH – biochemical, C-terminal His tag, absorbance 600 nm, primary screen (AID 1175);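 further: recombinant parasite enzyme with a five histidine tag at its C terminus; test concentration not given here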
Condition Notes: PfDHODH enzyme, DCIP absorbance 600 nm; higher = more signal, called active from +8 up or from −8 down
Cut-off 0.1 on composite z-score, inclusive. At or above means Fulfilled; below means Not fulfilled.

| Mol Smiles | Class |
| --- | --- |
| COCCOC(=O)N1C(=O)[C@@]2(c3ccccc31)[C@H](C(=O)N1CCCCCCC1)[C@H]1C(=O)O[C@H](c3ccccc3)[C@H](c3ccccc3)N1[C@@H]2c1ccc(OCCO)cc1 | Fulfilled |
| COC(=O)[C@]1(Cc2ccccc2)N=C(c2ccc(OCCCO)cc2)O[C@@H]1c1ccccc1N=[N+]=[N-] | Fulfilled |
| O=C(O)[C@H]1C[C@H]2C(=O)N3CCC[C@H]3C(=O)N2[C@H]1c1ccc(O)cc1 | Not fulfilled |
| C=C(CCCC)/C(=C/C[C@H](OC(C)=O)c1ccccc1OCCO)c1cnc2ccccc2c1 | Not fulfilled |
| COC(=O)c1c(CC[C@@H](CO)NC(=O)N[C@@H](Cc2ccccc2)Cn2cc(-c3ccccn3)nn2)oc(C(=O)N2CCOCC2)c1C(=O)OC | Fulfilled |
| COCCOC(=O)N1C(=O)[C@@]2(c3ccccc31)[C@H](C(=O)N1CCc3cc(OC)c(OC)cc3C1)[C@H]1C(=O)O[C@H](c3ccccc3)[C@H](c3ccccc3)N1[C@@H]2c1ccc(O)cc1 | Not fulfilled |
| O=C1O[C@@H](c2ccccc2)[C@@H](c2ccccc2)N2[C@@H](c3ccccc3OCCO)[C@]3(C(=O)Nc4ccccc43)[C@@H](C(=O)O)[C@H]12 | Not fulfilled |

----------
Assay System: NADPH oxidase 2 (Homo sapiens) (UniProt P04839)
Sequence (P04839 whole entry, looked up): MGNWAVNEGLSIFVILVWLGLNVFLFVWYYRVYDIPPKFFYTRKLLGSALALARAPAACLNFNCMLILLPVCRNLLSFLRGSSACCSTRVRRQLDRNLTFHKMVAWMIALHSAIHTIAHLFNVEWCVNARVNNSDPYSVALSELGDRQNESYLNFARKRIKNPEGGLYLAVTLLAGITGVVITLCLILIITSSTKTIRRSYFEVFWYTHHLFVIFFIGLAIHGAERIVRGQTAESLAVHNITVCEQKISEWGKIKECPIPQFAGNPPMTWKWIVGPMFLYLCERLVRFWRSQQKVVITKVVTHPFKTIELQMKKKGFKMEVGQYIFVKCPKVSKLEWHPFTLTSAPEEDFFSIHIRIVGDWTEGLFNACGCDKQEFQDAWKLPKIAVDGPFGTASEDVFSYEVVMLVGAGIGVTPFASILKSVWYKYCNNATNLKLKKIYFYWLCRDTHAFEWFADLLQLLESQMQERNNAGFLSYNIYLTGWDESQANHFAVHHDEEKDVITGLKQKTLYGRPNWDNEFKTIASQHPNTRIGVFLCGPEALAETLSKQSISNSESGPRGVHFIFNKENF
Assay Remarks: compounds shifting NOX2 Amplex Red fluorescence – cell-based, HEK293-NOX2, PMA-stimulated, NOX inhibitor project, primary screen (AID 1159); further: test concentration not given here
Condition Notes: 45 min, higher = more signal, called active from +8 up or from −8 down
Assign Condition met to entries whose z-score meets or exceeds 0.6; assign Condition not met to the rest.

| Compound | Class |
| --- | --- |
| CC(C)N1CC=CC23O[C@@H]4C=CCOC(=O)[C@@H]4[C@H]2C(=O)N(CCCCCO)[C@@H]3C1=O (stereo not given in full) | Condition met |
| CCOC(=O)C1=CC[C@@H](c2ccccc2)N(S(=O)(=O)c2ccc(C)cc2)[C@H]1c1ccc(CC)cc1 | Condition met |
| Cc1ccc(/C=C/C=O)cc1 | Condition not met |
| COCCOC(=O)N1C(=O)[C@@]2(c3cc(C#CC4=CCCCC4)ccc31)[C@H](C(N)=O)[C@H]1C(=O)O[C@H](c3ccccc3)[C@H](c3ccccc3)N1[C@@H]2c1ccc(O)cc1 | Condition met |
| COC(=O)C(CC#Cc1ccc2c(c1)[C@]1(C(=O)N2)[C@H](c2ccccc2OCCO)N2[C@H](c3ccccc3)[C@H](c3ccccc3)OC(=O)[C@H]2[C@@H]1C(N)=O)C(=O)OC | Condition met |
| C=CCC(OC(C)=O)[C@@H]1[C@@H](N(Cc2ccc(-c3cccc(C(F)(F)F)c3)o2)C(=O)Cc2ccc(OC)cc2)c2cc(OCCCO)ccc2N1C(=O)c1ccc2ccccc2c1 (stereo not given in full) | Condition not met |
| COCCCNC(=O)[C@@]1(CCS(=O)(=O)c2ccccc2)N=C(c2ccc(OCCCO)cc2)O[C@H]1c1ccccc1N=[N+]=[N-] | Condition not met |
| CC(C)C(=C=CC[C@H](O)c1ccc(CO)o1)CCO | Condition not met |
| Cc1c(NC(=O)/C(C#N)=C/c2cccc([N+](=O)[O-])c2)c(=O)n(-c2ccccc2)n1C | Condition not met |
| COc1cc2c(cc1OC)CN(C(=O)[C@H]1[C@@H]3C(=O)O[C@@H](c4ccccc4)[C@@H](c4ccccc4)N3[C@@H](c3ccccc3OCCO)[C@]13C(=O)Nc1ccc(C#CCCO)cc13)CC2 | Condition met |
| COCCOC(=O)N1C(=O)[C@@]2(c3ccccc31)[C@H](C(N)=O)[C@H]1C(=O)O[C@H](c3ccccc3)[C@H](c3ccccc3)N1[C@@H]2c1ccc(O)cc1 | Condition not met |
| CCCCC(=C=CC[C@H](O)c1cccc(OCCO)c1)C[C@H](O)c1ccccn1 | Condition not met |
| COC(=O)c1c2oc(c1C(=O)OC)C(=O)N[C@@H](C(C)C)Cn1cc(nn1)C1(CCCCC1)NC(=O)N[C@H](CO)CC2 | Condition met |
| C=CCNC(=O)[C@@H]1[C@H]2C(=O)O[C@H](c3ccccc3)[C@H](c3ccccc3)N2[C@H](c2ccc(OCCO)cc2)[C@@]12C(=O)N(C(=O)OCCOC)c1ccc(C#CCC(C(=O)OC)C(=O)OC)cc12 | Condition met |
| C=CCN(Cc1ccccc1)C(=O)C(c1cccs1)N(C(=O)/C=C\C(=O)O)c1ccc(CCOCCO)cc1 (stereo not given) | Condition not met |

----------
Assay Remarks: forskolin-driven CRE-LacZ activity in PC12 – cell-based, CRE-LacZ reporter, forskolin-stimulated, primary screen (AID 1146);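 further: PC12 cells with 6xCRE LacZ reporter stimulated by forskolin 10 µM; beta-galactosidase reporter signal reflecting CREB driven transcription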
Condition Notes: luminescence, 4.5 h, higher = more signal, called active from +8 up or from −8 down
Record class 1 whenever z-score is at 0.03 or higher; record class 0 when lower.

| Compound | Class |
| --- | --- |
| COc1ccc([Si](C)(C)[C@H]2[C@H](CC(=O)N3CCC[C@H]3CO)O[C@@]3(C(=O)N(Cc4cccc(N5CCOC5=O)c4)c4ccccc43)[C@@H]2C)cc1 | class 0 |
| COC(=O)c1c2oc(c1C(=O)OC)C(=O)N[C@@H](C(C)C)Cn1cc(nn1)C1(CCCCC1)NC(=O)N[C@H](CO)CC2 | class 0 |
| COc1cc(CO)cc(I)c1O[C@H]1C=C(C(=O)NCCO)C[C@@H](NC[C@@H]2CCCO2)[C@@H]1O | class 0 |
| COc1cc2c(cc1O)C(c1cccs1)N(Cc1cccc(OC(F)(F)F)c1)CC2 (configuration not stated) | class 0 |
| CCCCN1CC=CC23O[C@@H]4C=CCCOC(=O)C4[C@H]2C(=O)N(CCCCCO)[C@@H]3C1=O (some centres not stated) | class 1 |
| O=C(CS)NCCCCCNC(=O)[C@H]1C[C@H]2C(=O)NCC(=O)N2[C@H]1c1cccc(OCCO)c1 | class 0 |
| COc1ccc([Si](C)(C)[C@@H]2[C@@H](CC(=O)N3Cc4ccccc4C[C@H]3CO)O[C@]3(C(=O)N(Cc4cccc(N5CCC5=O)c4)c4ccccc43)[C@H]2C)cc1 | class 1 |

----------
Assay System: Torsin-1A (Homo sapiens) (UniProt O14656)
Sequence (O14656 whole entry, looked up): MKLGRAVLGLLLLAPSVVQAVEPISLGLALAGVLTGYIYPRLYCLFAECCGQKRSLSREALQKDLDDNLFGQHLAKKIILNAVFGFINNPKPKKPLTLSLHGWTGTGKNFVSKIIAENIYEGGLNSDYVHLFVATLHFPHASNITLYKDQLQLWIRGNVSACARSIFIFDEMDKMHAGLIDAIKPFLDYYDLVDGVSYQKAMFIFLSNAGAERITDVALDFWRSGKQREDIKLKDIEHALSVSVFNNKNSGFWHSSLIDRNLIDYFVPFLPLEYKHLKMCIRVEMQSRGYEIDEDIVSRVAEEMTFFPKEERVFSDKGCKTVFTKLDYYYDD
Assay Remarks: torsin A mutant lysate binding on microarrays – cell lysate, small-molecule microarray, COS7 lysate, 635/667 nm fluorescence, primary screen (AID 1150);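 further: score pools 667 nm emission and signal to noise measuring lysate protein binding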
Condition Notes: COS7 hTOR1A mutant lysate, 635 nm fluorescence, higher = more signal
Experimental Endpoint: composite z-score

| Molecule | Assay System | Recorded Measurement |
| --- | --- | --- |
| CN(C)CCCC[C@@H]1NC(=O)[C@H]2C[C@@H](C(=O)NCCCCCN)[C@@H](c3cccc(OCCO)c3)N2C1=O | Torsin-1A (Homo sapiens) (UniProt O14656) | 2.15 |
| COCC(=C=CC[C@H](O)c1ccccc1OCCO)CCO | Torsin-1A (Homo sapiens) (UniProt O14656) | 0.542 |
| CCOC(=O)C[C@H]1[C@H](OC(=O)c2ccc(-c3ccccc3)cc2)[C@@H](NC(=O)c2ccccc2)c2cc(OCCCO)ccc2N1C(=O)Cc1ccc(OC)cc1 | Torsin-1A (Homo sapiens) (UniProt O14656) | -0.456 |
| COCCCNC(=O)[C@@H]1c2ccccc2C(=O)N(Cc2ccccc2OC)[C@H]1c1ccc(CO)cc1 | Torsin-1A (Homo sapiens) (UniProt O14656) | -0.206 |
| COCCOC(=O)N1C(=O)[C@@]2(c3cc(C#CC4(O)CCCCCC4)ccc31)[C@H](C(=O)Nc1nc3ccccc3s1)[C@H]1C(=O)O[C@H](c3ccccc3)[C@H](c3ccccc3)N1[C@@H]2c1ccccc1OCCO | Torsin-1A (Homo sapiens) (UniProt O14656) | 0.144 |
| COc1cc2c(cc1O)C(c1cccs1)N(Cc1ccc([N+](=O)[O-])o1)CC2 (centres undefined) | Torsin-1A (Homo sapiens) (UniProt O14656) | -0.155 |
| O=C1O[C@H](c2ccccc2)[C@H](c2ccccc2)N2[C@H]1[C@@H](C(=O)NC[C@H](O)c1ccccc1)[C@]1(C(=O)Nc3ccc(C#CC4=CCCCC4)cc31)[C@H]2c1ccccc1OCCO | Torsin-1A (Homo sapiens) (UniProt O14656) | 0.223 |
| O=C(CS)NCCCCCNC(=O)[C@H]1C[C@H]2C(=O)NCC(=O)N2[C@H]1c1ccc(O)cc1 | Torsin-1A (Homo sapiens) (UniProt O14656) | 0.113 |
| CCOC(=O)[C@H]1C/C=C/C[C@H](C(=O)OCC)C(=O)O[C@H]2[C@@H](OC)O[C@H](CO)[C@@H](OC(=O)c3ccc(Br)cc3)[C@@H]2OC1=O | Torsin-1A (Homo sapiens) (UniProt O14656) | -0.15 |
| CCCCC(=C=CC[C@H](O)c1cccc(OCCO)c1)C[C@H](O)c1ccccn1 | Torsin-1A (Homo sapiens) (UniProt O14656) | 0.704 |
| OB1C=CCC(CCc2ccccc2)O1 (centres undefined) | Torsin-1A (Homo sapiens) (UniProt O14656) | -0.643 |
| O=C1O[C@H](c2ccccc2)[C@H](c2ccccc2)N2[C@H]1[C@@H](C(=O)N1CCN(c3ncccn3)CC1)[C@]1(C(=O)Nc3ccc(C#CC4=CCCCC4)cc31)[C@H]2c1ccccc1OCCO | Torsin-1A (Homo sapiens) (UniProt O14656) | 0.0096 |
| COCCOC(=O)N1C(=O)[C@@]2(c3cc(C#CC4=CCCCC4)ccc31)[C@H](c1ccc(OCCO)cc1)N1[C@H](c3ccccc3)[C@H](c3ccccc3)OC(=O)[C@H]1[C@@H]2C(=O)N1CCc2cc(OC)c(OC)cc2C1 | Torsin-1A (Homo sapiens) (UniProt O14656) | 1.17 |
| O=C1O[C@@H](c2ccccc2)[C@@H](c2ccccc2)N2[C@@H](c3ccccc3OCCO)[C@]3(C(=O)Nc4ccc(C#CC5(O)CCCCCC5)cc43)[C@@H](C(=O)N3CCN(c4ncccn4)CC3)[C@H]12 | Torsin-1A (Homo sapiens) (UniProt O14656) | 0.808 |

Hey, just so you know, these numbers are from PubChem BioAssay.
